- Procedure Text: Pharmacokinetic study in SD rats after oral gavage, plasma by LC/MS/MS
- Format: in vivo
- Cond: rat, 2 mg/kg, 2mpk
Measured Metric: AUC(0-t) (ng·h/mL)
Give the value, in units of ng·h/mL, as a plain number.

// query AUC(0-t) value for entry C[C@@H](Oc1ccc2[nH]nc(-c3cnc(C4=CCS(=O)(=O)CC4)c(F)c3)c2n1)c1c(Cl)cncc1Cl [Cpd-03A] 86.2

###

- Tested on: Ba/F3-FGFR4 cells
- Procedure Text: Cell proliferation inhibition, CTG method (Ba/F3-FGFR4)
- Type: cell-based
- Cond: 72 hrs
Hi! Could you tag entries with IC50 below 80 nM as yes, and those at or above as no? Much appreciated.

# Compound, Test System, Assigned Category
rows = [
    ("Cc1nn(CC(C)(C)O)c(C)c1-c1ncc(-c2n[nH]c3ccc(O[C@H](C)c4c(Cl)cncc4Cl)nc23)cc1F [Cpd-161A]", "Ba/F3-FGFR4 cells", "no"),
    ("C[C@@H](Oc1ccc2[nH]nc(-c3cnc(C4=CCS(=O)(=O)CC4)c(F)c3)c2n1)c1c(Cl)cncc1Cl [Cpd-03A]", "Ba/F3-FGFR4 cells", "yes"),
    ("Cc1nn(C2CC2)cc1-c1ccc(-c2n[nH]c3ccc(O[C@H](C)c4c(Cl)cncc4Cl)nc23)cn1 [Cpd-145A]", "Ba/F3-FGFR4 cells", "yes"),
]

Record Cc1nn(CC(C)(C)O)c(C)c1-c1ccc(-c2n[nH]c3ccc(O[C@H](C)c4c(Cl)cncc4Cl)nc23)cn1 [Cpd-158A] : is its IC50 strictly below 80 nM? yes

Record Cc1cc2[nH]nc(-c3ccc(-c4c(C)nn(CC(C)(C)O)c4C)nc3)c2nc1O[C@H](C)c1c(Cl)cncc1Cl [Cpd-175A] : is its IC50 strictly below 80 nM? yes

Record Cc1nn(CC(C)(C)O)cc1-c1ncc(-c2n[nH]c3ccc(O[C@H](C)c4c(Cl)cncc4Cl)nc23)cc1F [Cpd-162A] : is its IC50 strictly below 80 nM? yes

Record CCN1CCN(c2ccc(Nc3cc(N(C)C(=O)Nc4c(Cl)c(OC)cc(OC)c4Cl)ncn3)cc2)CC1 [Infigratinib, reference compound] : is its IC50 strictly below 80 nM? no

###

- Procedure Text: Pharmacokinetic study in SD rats after oral gavage, plasma by LC/MS/MS
- Assay type: in vivo
- Cond: rat, 2 mg/kg, 2mpk
Measured Metric: Tmax (h)
Give the value, in units of h, as a plain number.

// query Tmax value for entry C[C@@H](Oc1ccc2[nH]nc(-c3cnc(C4=CCS(=O)(=O)CC4)c(F)c3)c2n1)c1c(Cl)cncc1Cl [Cpd-03A] 1

###

- Procedure Text: Pharmacokinetic study in SD rats after oral gavage, plasma by LC/MS/MS
- Assay type: in vivo
- Cond: rat, 2 mg/kg, 2mpk, read-out: MRTINF_pred
Measured Metric: MRT inf (h)
Give the value, in units of h, as a plain number.

// query MRT inf value for entry C[C@@H](Oc1ccc2[nH]nc(-c3cnc(C4=CCS(=O)(=O)CC4)c(F)c3)c2n1)c1c(Cl)cncc1Cl [Cpd-03A] 2

###

We begin with a simple list: items and their reported MRT inf.
- Procedure Text: Pharmacokinetic study in SD rats after oral gavage, plasma by LC/MS/MS
- Format: in vivo
- Cond: both sexes, Sprague-Dawley (SD), rat, 2 mg/kg, 2mpk, read-out: MRTINF_pred
- Protocol: The SD rats were used as test animals. The drug concentration in plasma at different time points was determined by LC/MS/MS method after the compound of the present invention was administered to the SD rats by oral gavage. The pharmacokinetic behavior of the compound of the present invention in SD rats was studied and the pharmacokinetic characteristics were evaluated. […]
Give the value, in units of h, as a plain number.

Example results:
# Molecule, Measured Metric, Unit Name, Value Measured
measured = [
    ("CCN1CCN(c2ccc(Nc3cc(N(C)C(=O)Nc4c(Cl)c(OC)cc(OC)c4Cl)ncn3)cc2)CC1 [Infigratinib, reference compound]", "MRT inf", "h", 3.1),
    ("Cc1cc2[nH]nc(-c3ccc(-c4c(C)nn(CC(C)(C)O)c4C)nc3)c2nc1O[C@H](C)c1c(Cl)cncc1Cl [Cpd-175A]", "MRT inf", "h", 3.5),
]

// next entry
// query MRT inf value for entry Cc1nn(C2CC2)cc1-c1ccc(-c2n[nH]c3ccc(O[C@H](C)c4c(Cl)cncc4Cl)nc23)cn1 [Cpd-145A] 5.6
